B1: F1*; the commonest letter at each place (parent)
chain: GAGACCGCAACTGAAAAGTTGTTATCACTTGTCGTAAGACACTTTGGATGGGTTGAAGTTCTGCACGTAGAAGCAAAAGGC

Variants of: B1
protocol_summary: fraction ligated after 30 min (ligated reads / total reads); higher = more ligase activity
condition_notes: with F1*sub RNA substrate (template-directed ligation), 42 °C
Binning rule for recorded fraction ligated: band 1 = under 0.7, band 2 = from 0.7 up to 0.8, band 3 = 0.8 and over

{"columns": ["variant_annotation", "category"],
 "data": [
  ["C42G A48C", "band 2"]
]}

# next variant below
Exam item: Which category fits this record: T25A A41T
Marked response: band 1

Recorded values, source the supplement of paper PMC6755084.
